# credit: paper PMC5529566

molecular target: H^+,K^+-ATPase I126A (Sus scrofa, UniProt P19156, I127A); construct: permeabilised membrane fractions; test: ATPase assay, I126A mutant; settings: I126A (M1), high H^+-ATPase activity; K i determined by K m/V max plot
recorded.metric: Ki (nM)

Cc1nc2c3c(ccn2c1C)[C@@H](O)[C@H](O)[C@@H](c1ccccc1)N3 [BYK99] :: 110

----------
target: H^+,K^+-ATPase D136L (Sus scrofa, UniProt P19156, D137L); assay: ATPase assay, D136L mutant; settings: D136L
Sequence (P19156 whole entry D137L, one chain of several): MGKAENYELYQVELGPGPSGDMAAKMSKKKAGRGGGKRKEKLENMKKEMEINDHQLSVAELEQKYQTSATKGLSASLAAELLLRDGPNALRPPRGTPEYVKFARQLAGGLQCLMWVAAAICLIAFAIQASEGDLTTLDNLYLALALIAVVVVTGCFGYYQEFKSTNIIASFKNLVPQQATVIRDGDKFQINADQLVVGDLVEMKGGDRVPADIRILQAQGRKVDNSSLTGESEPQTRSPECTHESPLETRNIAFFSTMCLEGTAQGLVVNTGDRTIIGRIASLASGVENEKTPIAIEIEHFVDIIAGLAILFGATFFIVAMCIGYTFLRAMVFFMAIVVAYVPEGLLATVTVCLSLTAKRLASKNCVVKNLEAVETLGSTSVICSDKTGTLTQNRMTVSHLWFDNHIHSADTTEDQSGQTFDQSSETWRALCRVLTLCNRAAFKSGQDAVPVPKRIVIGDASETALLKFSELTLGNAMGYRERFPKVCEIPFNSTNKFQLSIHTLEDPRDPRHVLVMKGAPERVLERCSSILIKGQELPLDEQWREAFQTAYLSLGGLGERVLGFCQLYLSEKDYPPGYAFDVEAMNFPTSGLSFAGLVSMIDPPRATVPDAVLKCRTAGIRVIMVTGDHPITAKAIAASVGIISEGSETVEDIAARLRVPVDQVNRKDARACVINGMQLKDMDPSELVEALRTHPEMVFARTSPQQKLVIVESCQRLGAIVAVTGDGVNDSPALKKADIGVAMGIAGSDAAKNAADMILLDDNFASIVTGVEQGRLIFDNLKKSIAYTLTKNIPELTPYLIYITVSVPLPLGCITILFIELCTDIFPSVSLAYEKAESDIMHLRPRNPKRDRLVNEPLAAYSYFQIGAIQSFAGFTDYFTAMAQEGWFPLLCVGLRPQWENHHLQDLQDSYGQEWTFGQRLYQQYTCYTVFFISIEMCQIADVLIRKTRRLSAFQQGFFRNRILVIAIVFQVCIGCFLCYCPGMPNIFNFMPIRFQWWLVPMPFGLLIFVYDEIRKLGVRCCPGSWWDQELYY
Item-by-item account of -fold increase in K i compared with wild-type
recorded.metric: -fold increase in K i compared with wild-type (fold)

Cc1cn2cccc(OCc3ccccc3)c2n1 :: 1.0
N#CCc1cnc2c(OCc3ccccc3)cccn12 :: 0.5
Cc1nc2c3c(ccn2c1C)[C@@H](O)[C@H](O)[C@@H](c1ccccc1)N3 :: 0.9
Cc1nc2c3c(ccn2c1C)[C@@H](O)[C@H](O)[C@@H](c1ccccc1)N3C :: 0.7

----------
biological target: H^+,K^+-ATPase L139I (Sus scrofa, UniProt P19156, L140I); test: ATPase assay, L139I mutant; conditions: L139I
Item-by-item account of -fold increase in K i compared with wild-type
recorded.metric: -fold increase in K i compared with wild-type (fold)

Cc1nc2c3c(ccn2c1C)[C@@H](O)[C@H](O)[C@@H](c1ccccc1)N3C [BYK73] :: 0.3
N#CCc1cnc2c(OCc3ccccc3)cccn12 [SCH-Me^−] :: 0.2
Cc1cn2cccc(OCc3ccccc3)c2n1 [SCH-CN^−] :: 0.3
Cc1nc2c3c(ccn2c1C)[C@@H](O)[C@H](O)[C@@H](c1ccccc1)N3 [BYK99] :: 0.4

----------
target: H^+,K^+-ATPase Q127A (Sus scrofa, UniProt P19156, Q128A); assay: ATPase assay, Q127A mutant
Sequence (P19156 whole entry Q128A): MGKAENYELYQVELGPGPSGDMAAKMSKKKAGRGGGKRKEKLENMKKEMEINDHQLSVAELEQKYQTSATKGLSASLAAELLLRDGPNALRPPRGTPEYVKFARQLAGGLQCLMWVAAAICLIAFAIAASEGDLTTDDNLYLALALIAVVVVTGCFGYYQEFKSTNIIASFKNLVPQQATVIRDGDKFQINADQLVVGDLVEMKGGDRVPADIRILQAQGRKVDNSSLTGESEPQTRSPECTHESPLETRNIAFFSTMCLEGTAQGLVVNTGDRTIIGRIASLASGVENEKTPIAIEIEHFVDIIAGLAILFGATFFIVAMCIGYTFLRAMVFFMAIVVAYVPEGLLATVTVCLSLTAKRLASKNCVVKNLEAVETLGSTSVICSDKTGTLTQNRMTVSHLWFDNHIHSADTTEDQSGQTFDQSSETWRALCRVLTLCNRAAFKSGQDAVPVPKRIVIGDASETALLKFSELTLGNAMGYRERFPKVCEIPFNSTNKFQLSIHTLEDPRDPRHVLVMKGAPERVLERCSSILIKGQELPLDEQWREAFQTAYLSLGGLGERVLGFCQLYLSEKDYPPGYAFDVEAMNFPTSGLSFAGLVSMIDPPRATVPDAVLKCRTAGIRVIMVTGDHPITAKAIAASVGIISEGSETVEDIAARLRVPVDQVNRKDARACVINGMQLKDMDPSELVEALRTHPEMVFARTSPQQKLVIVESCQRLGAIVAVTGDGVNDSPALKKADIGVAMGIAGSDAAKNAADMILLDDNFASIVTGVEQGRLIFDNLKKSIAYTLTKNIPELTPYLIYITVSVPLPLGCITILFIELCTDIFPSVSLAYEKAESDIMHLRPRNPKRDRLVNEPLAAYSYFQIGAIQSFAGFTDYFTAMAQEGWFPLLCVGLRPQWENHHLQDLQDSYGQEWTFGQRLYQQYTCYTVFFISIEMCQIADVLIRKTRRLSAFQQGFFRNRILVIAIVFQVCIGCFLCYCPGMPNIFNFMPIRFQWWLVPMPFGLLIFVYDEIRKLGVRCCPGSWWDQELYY
Sequence (P18434 whole entry partner): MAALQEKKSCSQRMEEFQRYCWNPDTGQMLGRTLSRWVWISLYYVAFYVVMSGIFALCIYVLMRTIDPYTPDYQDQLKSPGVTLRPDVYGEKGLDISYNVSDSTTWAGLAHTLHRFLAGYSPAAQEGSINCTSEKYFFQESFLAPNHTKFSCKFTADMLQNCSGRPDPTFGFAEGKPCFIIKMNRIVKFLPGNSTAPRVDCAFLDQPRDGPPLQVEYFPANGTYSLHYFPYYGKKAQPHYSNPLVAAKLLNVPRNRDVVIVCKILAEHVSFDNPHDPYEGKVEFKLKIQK
recorded.metric: Ki (nM)

Cc1nc2c3c(ccn2c1C)[C@@H](O)[C@H](O)[C@@H](c1ccccc1)N3 [BYK99] :: 19

----------
target: H^+,K^+-ATPase L139A (Sus scrofa, UniProt P19156, L140A); experiment: ATPase assay, L139A mutant
pKi: −log10 of the molar value.
recorded.metric: pKi

Cc1nc2c3c(ccn2c1C)[C@@H](O)[C@H](O)[C@@H](c1ccccc1)N3 :: 7.85
Cc1nc2c3c(ccn2c1C)[C@@H](O)[C@H](O)[C@@H](c1ccccc1)N3C :: 5.24
N#CCc1cnc2c(OCc3ccccc3)cccn12 :: 5.06
Cc1cn2cccc(OCc3ccccc3)c2n1 :: 5.48

----------
Item-by-item account of -fold increase in K i compared with wild-type
biological target: H^+,K^+-ATPase D137A (Sus scrofa, UniProt P19156, D138A); experiment: ATPase assay, D137A mutant; settings: D137A
Sequence (P19156 whole entry D138A): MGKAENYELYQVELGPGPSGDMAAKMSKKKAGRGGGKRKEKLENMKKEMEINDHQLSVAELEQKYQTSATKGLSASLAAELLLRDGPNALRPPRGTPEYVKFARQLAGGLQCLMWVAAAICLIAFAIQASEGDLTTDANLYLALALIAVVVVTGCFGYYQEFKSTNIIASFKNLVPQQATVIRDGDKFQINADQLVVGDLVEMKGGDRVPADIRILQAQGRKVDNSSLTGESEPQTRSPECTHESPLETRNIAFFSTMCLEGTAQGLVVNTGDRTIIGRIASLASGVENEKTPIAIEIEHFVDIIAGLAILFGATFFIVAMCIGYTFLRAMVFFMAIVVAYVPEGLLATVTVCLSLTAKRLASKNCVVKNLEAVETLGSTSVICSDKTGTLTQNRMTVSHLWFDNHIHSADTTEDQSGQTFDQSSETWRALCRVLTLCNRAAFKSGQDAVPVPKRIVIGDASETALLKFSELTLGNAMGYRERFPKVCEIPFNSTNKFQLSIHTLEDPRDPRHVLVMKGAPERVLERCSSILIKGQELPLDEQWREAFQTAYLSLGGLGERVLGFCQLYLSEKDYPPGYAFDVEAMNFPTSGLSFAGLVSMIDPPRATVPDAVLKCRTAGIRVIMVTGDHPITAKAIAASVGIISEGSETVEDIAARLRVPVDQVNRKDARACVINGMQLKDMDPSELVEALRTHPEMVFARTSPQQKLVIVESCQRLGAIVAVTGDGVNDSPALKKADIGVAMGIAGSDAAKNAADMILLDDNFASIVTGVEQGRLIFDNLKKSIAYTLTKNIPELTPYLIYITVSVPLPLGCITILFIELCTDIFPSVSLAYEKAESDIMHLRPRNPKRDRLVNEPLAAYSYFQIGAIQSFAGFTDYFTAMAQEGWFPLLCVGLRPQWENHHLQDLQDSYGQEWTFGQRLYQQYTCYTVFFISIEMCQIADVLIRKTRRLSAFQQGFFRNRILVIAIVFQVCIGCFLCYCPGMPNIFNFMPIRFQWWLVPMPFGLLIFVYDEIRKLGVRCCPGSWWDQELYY
Sequence (P18434 whole entry partner): as the sequence (P18434 whole entry partner) above
recorded.metric: -fold increase in K i compared with wild-type (fold)

N#CCc1cnc2c(OCc3ccccc3)cccn12 :: 5.5
Cc1cn2cccc(OCc3ccccc3)c2n1 :: 8.8
Cc1nc2c3c(ccn2c1C)[C@@H](O)[C@H](O)[C@@H](c1ccccc1)N3C :: 25
Cc1nc2c3c(ccn2c1C)[C@@H](O)[C@H](O)[C@@H](c1ccccc1)N3 :: 14

----------
biological target: H^+,K^+-ATPase L139F (Sus scrofa, UniProt P19156, L140F); assay: ATPase assay, L139F mutant
Sequence (P19156 whole entry L140F): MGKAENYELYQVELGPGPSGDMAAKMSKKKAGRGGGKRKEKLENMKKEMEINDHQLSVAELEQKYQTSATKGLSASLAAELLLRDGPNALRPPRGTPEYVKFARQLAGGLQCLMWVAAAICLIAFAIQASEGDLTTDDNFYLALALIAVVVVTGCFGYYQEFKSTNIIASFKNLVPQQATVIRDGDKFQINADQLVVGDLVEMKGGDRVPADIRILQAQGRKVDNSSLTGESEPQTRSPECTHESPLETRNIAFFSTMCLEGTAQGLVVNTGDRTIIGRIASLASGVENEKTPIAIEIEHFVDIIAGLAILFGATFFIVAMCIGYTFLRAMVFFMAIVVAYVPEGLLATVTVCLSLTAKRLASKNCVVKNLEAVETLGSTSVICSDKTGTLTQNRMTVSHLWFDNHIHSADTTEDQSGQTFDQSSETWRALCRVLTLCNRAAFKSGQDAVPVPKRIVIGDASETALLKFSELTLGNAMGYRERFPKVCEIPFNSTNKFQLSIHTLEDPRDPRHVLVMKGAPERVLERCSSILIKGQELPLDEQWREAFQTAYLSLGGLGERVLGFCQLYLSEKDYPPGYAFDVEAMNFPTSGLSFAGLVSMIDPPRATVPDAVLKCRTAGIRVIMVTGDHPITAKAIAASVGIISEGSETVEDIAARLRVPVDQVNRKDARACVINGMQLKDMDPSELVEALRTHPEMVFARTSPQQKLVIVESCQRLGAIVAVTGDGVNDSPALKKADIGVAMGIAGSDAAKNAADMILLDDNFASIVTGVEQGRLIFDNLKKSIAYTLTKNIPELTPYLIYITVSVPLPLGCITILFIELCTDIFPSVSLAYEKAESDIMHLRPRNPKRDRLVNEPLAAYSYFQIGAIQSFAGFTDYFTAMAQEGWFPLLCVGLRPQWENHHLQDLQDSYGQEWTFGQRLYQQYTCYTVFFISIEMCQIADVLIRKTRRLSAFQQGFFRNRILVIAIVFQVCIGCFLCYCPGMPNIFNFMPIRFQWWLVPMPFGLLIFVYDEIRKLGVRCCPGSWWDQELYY
Sequence (P18434 whole entry partner): as the sequence (P18434 whole entry partner) above
recorded.metric: Ki (µM)

N#CCc1cnc2c(OCc3ccccc3)cccn12 :: 13
Cc1nc2c3c(ccn2c1C)[C@@H](O)[C@H](O)[C@@H](c1ccccc1)N3C :: 8.9
Cc1cn2cccc(OCc3ccccc3)c2n1 :: 6.6
Cc1nc2c3c(ccn2c1C)[C@@H](O)[C@H](O)[C@@H](c1ccccc1)N3 :: 0.018
